protocol.description: PDMS sheets cleaned by Soxhlet with ethyl acetate; batch shaking method with a mixture of all chemicals at several PDMS-mass to water-volume ratios and spiked levels; vials shaken on an orbital shaker at room temperature in the dark, sampled at two equilibration times; PDMS extracts and water quantified by LC-HRMS (Orbitrap); D from the slope of C_PDMS on C_w or their ratio; value is the mean over that pH's experiments (individual experiments in the SI's concentrations table), sd is the table's stdev
condition.summary: PDMS (polydimethylsiloxane silicone sheet); phosphate buffer at three target pH values (the paper's methods); pH 11.5
measured.property: log D PDMS/w (apparent distribution ratio at the stated pH)

[
  {
    "molecule": "c1ccc(-c2ccc(C(c3ccccc3)n3ccnc3)cc2)cc1 (stereo not shown)",
    "assay.result": "4.169 log units; D and K as the pape"
  },
  {
    "molecule": "c1ccc2nc3ccccc3cc2c1",
    "assay.result": "2.167 log units; D and K as the pape"
  },
  {
    "molecule": "CC=CC(=O)N(CC)c1ccccc1C (mixture of isomers)",
    "assay.result": "2.025 log units; D and K as the pape"
  },
  {
    "molecule": "CCNC(=O)[C@@H](C)OC(=O)Nc1ccccc1",
    "assay.result": "0.7717 log units; D and K as the pape"
  }
]

Briefly, log D PDMS/w (apparent distribution ratio at the stated pH) measured for Clc1ccc2n[nH]nc2c1 : 0.065 log units; D and K as the pape

The molecule O=S(=O)(c1ccc(Cl)cc1)c1ccc(Cl)cc1 showed log D PDMS/w (apparent distribution ratio at the stated pH) equal to 2.517 log units; D and K as the pape

Query Cc1ccc(C=C2C(=O)C3(C)CCC2C3(C)C)cc1 (stereo not shown) yields log D PDMS/w (apparent distribution ratio at the stated pH) of 3.742 log units; D and K as the pape

Query NC(=O)N1c2ccccc2C(O)C(O)c2ccccc21 (stereo not shown) yields log D PDMS/w (apparent distribution ratio at the stated pH) of -0.57 log units; D and K as the pape

In plain terms, NC(=O)/N=C1\SCCN1Cc1ccc(Cl)nc1 has a documented log D PDMS/w (apparent distribution ratio at the stated pH) of 0.4142 log units; D and K as the pape

Entry N#Cc1nn(-c2c(Cl)cc(C(F)(F)F)cc2Cl)c(N)c1C(F)(F)F , log D PDMS/w (apparent distribution ratio at the stated pH) reported as 1.883 log units; D and K as the pape

The measured log D PDMS/w (apparent distribution ratio at the stated pH) associated with CN(C)C(=O)Nc1ccccc1 reads 0.443 log units; D and K as the pape

Kindly note the recorded log D PDMS/w (apparent distribution ratio at the stated pH) for CCNc1nc(N)nc(Cl)n1 , which is 0.09 log units; D and K as the pape

Value of measured log D PDMS/w (apparent distribution ratio at the stated pH) for the entry Cc1nccn1CC1CCc2c(c3ccccc3n2C)C1=O (stereo not shown) : 2.124 log units; D and K as the pape

----------
protocol.description: PDMS sheets cleaned by Soxhlet with ethyl acetate; batch shaking method with a mixture of all chemicals at several PDMS-mass to water-volume ratios and spiked levels; vials shaken on an orbital shaker at room temperature in the dark, sampled at two equilibration times; PDMS extracts and water quantified by LC-HRMS (Orbitrap); D from the slope of C_PDMS on C_w or their ratio; value is the mean over that pH's experiments (individual experiments in the SI's concentrations table), sd is the table's stdev
condition.summary: PDMS (polydimethylsiloxane silicone sheet); phosphate buffer at three target pH values (the paper's methods); pH 3
measured.property: log D PDMS/w (apparent distribution ratio at the stated pH)

Take a look at these entries with their results.
[
  {
    "compound": "CC(C)C(=O)Nc1ccc([N+](=O)[O-])c(C(F)(F)F)c1",
    "assay.result": "1.476 log units; D and K as the pape"
  },
  {
    "compound": "CC(C)(Oc1ccc(CCNC(=O)c2ccc(Cl)cc2)cc1)C(=O)O",
    "assay.result": "1.054 log units; D and K as the pape"
  },
  {
    "compound": "CCC(C(N)=O)(C(N)=O)c1ccccc1",
    "assay.result": "-0.586 log units; D and K as the pape"
  },
  {
    "compound": "CCOC(=O)C(C)(C)Oc1ccc(Cl)cc1",
    "assay.result": "1.764 log units; D and K as the pape"
  },
  {
    "compound": "CCCCCCCCCCCC(=O)NCC(C)O (stereo not drawn)",
    "assay.result": "3.188 log units; D and K as the pape"
  }
]

Record CCNS(=O)(=O)c1ccccc1C . Reported log D PDMS/w (apparent distribution ratio at the stated pH): 0.51 log units; D and K as the pape

Data point: CCNC(=O)[C@@H](C)OC(=O)Nc1ccccc1 ; log D PDMS/w (apparent distribution ratio at the stated pH) = 0.635 log units; D and K as the pape

Sample CCCCOCCOCCOCc1cc2c(cc1CCC)OCO2 ; log D PDMS/w (apparent distribution ratio at the stated pH) observed: 3.728 log units; D and K as the pape

// log D PDMS/w (apparent distribution ratio at the stated pH) value for N#Cc1nn(-c2c(Cl)cc(C(F)(F)F)cc2Cl)c(N)c1C(F)(F)F : 1.946 log units; D and K as the pape

The reported value for CCOC(=O)NCCOc1ccc(Oc2ccccc2)cc1 in terms of log D PDMS/w (apparent distribution ratio at the stated pH) is 3.077 log units; D and K as the pape

Quick note, log D PDMS/w (apparent distribution ratio at the stated pH) for COC(=O)C(c1ccccc1Cl)N1CCc2sccc2C1 (stereo not drawn) landed at 1.25 log units; D and K as the pape

# compound N#Cc1nn(-c2c(Cl)cc(C(F)(F)F)cc2Cl)c(N)c1SC(F)(F)F ; its log D PDMS/w (apparent distribution ratio at the stated pH) = 2.477 log units; D and K as the pape

// recorded log D PDMS/w (apparent distribution ratio at the stated pH) for c1ccc2sc(NC3CCCCC3)nc2c1 : 2.092 log units; D and K as the pape

The reported numbers originate from paper PMC10114720.
